// provenance: patent US20210246109A1

- Procedure text: Cytotoxicity, resazurin, 72 hours after compound addition
- Type: cell-based
- Test context: human, HEK cells; Table 3; HEK; read-out: HEK cytotoxicity
Measured metric: IC50 at 72 h

Query :: Recorded IC50 at 72 h of C#CCOc1ccc(-c2nc3ccccc3c(=O)[nH]2)cc1 , please.
Result :: 406 nM

====

- Target: CYP1A1 (Homo sapiens, UniProt P04798)
- Construct: expressed in transfected cells
- Procedure text: EROD assay in CYP1A1 counter-screen cell line
- Assay type: cell-based
- Test context: Table 3; read-out: IC50 1A1
Measured metric: IC50 (µM)
Your answer is read as µM, so omit the unit and give the number.

Query :: Give its IC50 value. Item: C#CCOc1ccc(/C=C/c2ccncn2)cc1
Result :: 5.6

Query :: What about this compound? O=C(NCCCOc1ccc(CCc2ccncn2)cc1)OCCOCCOCCOC(=O)NC12CC3CC(CC(C3)C1)C2
Result :: 1.1

Query :: And then c1ccc2nc(-c3nc4ccccc4[nH]3)ccc2c1 , what is it?
Result :: 0.76

Query :: Follow-up entry: N#CCOc1ccc(-c2nc(OCCCNC(=O)OCCOCCOCCOC(=O)NC34CC5CC(CC(C5)C3)C4)c3ccccc3n2)cc1
Result :: 3.58

Query :: What about Fc1ccc(-c2nc3ccccc3[nH]2)cc1C(F)(F)F ?
Result :: 0.32

====

- Target: CYP1A1 (Homo sapiens)
- Construct: expressed in transfected cells
- Sequence (P04798 1-512): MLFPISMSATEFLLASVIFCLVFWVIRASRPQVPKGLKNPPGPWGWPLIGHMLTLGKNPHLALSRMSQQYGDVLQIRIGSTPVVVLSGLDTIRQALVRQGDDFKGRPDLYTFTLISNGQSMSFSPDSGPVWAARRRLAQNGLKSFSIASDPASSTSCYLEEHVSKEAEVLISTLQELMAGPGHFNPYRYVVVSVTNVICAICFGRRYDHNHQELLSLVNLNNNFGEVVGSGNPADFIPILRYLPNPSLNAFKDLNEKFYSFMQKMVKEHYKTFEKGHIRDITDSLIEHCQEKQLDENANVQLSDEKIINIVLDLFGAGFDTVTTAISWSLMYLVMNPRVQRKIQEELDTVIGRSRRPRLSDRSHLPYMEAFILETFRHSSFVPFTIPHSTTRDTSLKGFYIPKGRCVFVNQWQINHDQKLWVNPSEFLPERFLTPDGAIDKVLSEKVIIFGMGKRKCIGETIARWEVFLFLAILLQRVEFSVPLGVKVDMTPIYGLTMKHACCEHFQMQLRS
- Procedure text: EROD assay in CYP1A1 counter-screen cell line
- Format: cell-based
- Test context: human, probe resorufin ethyl ether, Table 3; read-out: IC50 1A1
Measured metric: IC50 (µM)
Respond with the bare value in µM.

Query :: Fill blank: measured IC50 of the molecule COc1ccc(/C=C/c2ccncn2)c(OC)c1 [GL433] is ____.
Result :: 10

Query :: What do you have for COc1cc(OC)c(/C=C/c2ccncn2)c(OC)c1 [GL456] ?
Result :: 10

Query :: Also C#CCOc1ccc(/C=C/c2ccncn2)cc1 [GL508] ?
Result :: 10

====

- Target: CYP1B1 (Homo sapiens, UniProt Q16678)
- Construct: expressed in transfected cells
- Sequence (Q16678 whole entry): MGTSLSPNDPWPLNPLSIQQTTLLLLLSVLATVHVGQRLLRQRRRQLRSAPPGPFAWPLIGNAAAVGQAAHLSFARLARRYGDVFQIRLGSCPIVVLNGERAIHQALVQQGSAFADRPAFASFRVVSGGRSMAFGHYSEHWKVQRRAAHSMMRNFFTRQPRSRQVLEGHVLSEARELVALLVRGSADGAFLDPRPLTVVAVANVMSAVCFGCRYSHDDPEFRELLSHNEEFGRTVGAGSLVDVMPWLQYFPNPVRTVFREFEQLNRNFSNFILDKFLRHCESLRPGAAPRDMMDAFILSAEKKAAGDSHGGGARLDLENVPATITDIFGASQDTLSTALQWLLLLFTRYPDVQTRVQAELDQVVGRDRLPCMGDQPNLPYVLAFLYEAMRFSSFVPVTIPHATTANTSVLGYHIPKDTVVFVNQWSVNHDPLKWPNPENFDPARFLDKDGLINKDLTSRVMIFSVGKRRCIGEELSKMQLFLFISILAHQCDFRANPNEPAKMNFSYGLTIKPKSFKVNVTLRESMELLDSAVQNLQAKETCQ
- Procedure text: EROD assay in inducible CYP1B1 cell line
- Format: cell-based
- Test context: Table 2; EROD assay; read-out: IC50 CYP1B1
Field: pIC50. Provide a value for each of the compounds that follow.
Quick note: pIC50 values are minus log10 of concentrations in mol/L.

Query :: Requested read-out: pIC50. Entry: COc1ccc(-c2csc(-c3cccnc3)n2)c(OC)c1
Result :: 7.70

Query :: Next entry: C#CCOc1ccc(-c2nc(-c3ccc(C#N)cc3)cs2)cc1
Result :: 6.69

Query :: Subsequent entry: Fc1ccc(-c2csc(-c3ccccn3)n2)cc1C(F)(F)F
Result :: 7.08

Query :: And for N#Cc1ccc(-c2csc(-c3ccc(O)cc3)n2)cc1 ?
Result :: 6.03

Query :: Quick one: Oc1ccc(-c2csc(-c3cccnc3)n2)cc1
Result :: 5.65

Query :: One more compound: Oc1ccc(-c2csc(-c3ccccn3)n2)cc1
Result :: 5.99

Query :: How about this compound: COc1ccc(-c2nc(-c3ccc(F)c(C(F)(F)F)c3)cs2)c(OC)c1
Result :: 9.01

Query :: What about N#CCOc1ccc(-c2nc(-c3cccnc3)cs2)cc1 ?
Result :: 9.42

Query :: How about this compound: N#Cc1ccc(-c2csc(-c3cccnc3)n2)cc1
Result :: 6.41

====

- Target: CYP1B1 (Homo sapiens, UniProt Q16678)
- Construct: expressed in transfected cells
- Procedure text: EROD assay in inducible CYP1B1 cell line
- Assay type: cell-based
- Test context: Table 2; EROD assay; read-out: IC50 CYP1B1
Measured metric: IC50 (nM)
Number in nM, nothing else.

Query :: Report IC50 for Oc1ccc(-c2nc(-c3ccc(F)c(C(F)(F)F)c3)cs2)cc1 please.
Result :: 208

Query :: Also need COc1ccc(-c2nc(-c3ccc(O)cc3)cs2)c(OC)c1 , thanks.
Result :: 101

Query :: Can you handle COc1ccc(-c2csc(-c3ccc(O)cc3)n2)c(OC)c1 next?
Result :: 61.9

Query :: Please answer likewise for c1ccc(-c2nc(-c3cccnc3)cs2)nc1
Result :: 2390

====

- Target: CYP1B1 (Homo sapiens, UniProt Q16678)
- Construct: expressed in transfected cells
- Procedure text: EROD assay in inducible CYP1B1 cell line
- Assay type: cell-based
- Test context: Table 3; read-out: IC50 1B1
Provide the reported IC50 of each item.
Hi! Could you send only the number? It should be in nM, unit omitted.

Query :: Quick one: IC50 of COc1ccc(/C=C/c2cncnc2)c(OC)c1 ?
Result :: 2510

Query :: COc1cc(-c2nc3ccc(C#Cc4ccccc4)cc3c(=O)[nH]2)ccc1OCC#N , same question.
Result :: 1.8

Query :: Cool, now COc1ccc(-c2nc3ccccc3c(=O)n2CC#N)c(OC)c1
Result :: 970

Query :: How about this compound: COc1ccc(/C=C/c2cnccn2)c(OC)c1
Result :: 510

Query :: What would you report for COc1ccc(-c2nc(OCC#N)c3ccccc3n2)cc1 ?
Result :: 3.5

Query :: What do we get for COc1cc(/C=C/c2ccncn2)cc(OC)c1 ?
Result :: 760

Query :: Entry to check: COc1ccc(/C=C/C(=O)c2cc(OC)c(OC)c(OC)c2)c(OC)c1
Result :: 1100

Query :: And O=c1[nH]c(-c2ccc3ccccc3n2)nc2ccccc12 ?
Result :: 2.8

Query :: And O=c1[nH]c(-c2ccc(F)c(C(F)(F)F)c2)nc2ccccc12 ?
Result :: 41

Query :: // same read-out, input: O=c1[nH]c(-c2cccc(C(F)(F)F)c2)nc2ccccc12
Result :: 200

Query :: // repeat for COc1ccc(/C=C/c2cccnc2)c(OC)c1 and report
Result :: 310

Query :: Also, Fc1ccc(-c2nc3ccccc3[nH]2)cc1C(F)(F)F please.
Result :: 85

Query :: Same question, N#CCOc1nc(-c2ccc(F)cc2)nc2ccccc12 this time
Result :: 850

Query :: Now consider C#CCOc1ccc(/C=C/c2ccncn2)cc1 .
Result :: 105

Query :: Try this compound too: O=c1[nH]c(-c2ccc(OC/C(I)=C\I)cc2)nc2ccccc12
Result :: 11.8

Query :: Now give it for COc1ccc(/C=C/c2ccncn2)c(OC)c1 too.
Result :: 76

Query :: And the next one, N#CCOc1ccc(/C=N/c2ccccc2C(N)=O)cc1 ?
Result :: 51

Query :: Then this compound: N#CCOc1ccc(-c2nc3ccccc3c(=O)[nH]2)cc1OCC#N
Result :: 20.4

Query :: Queued: C#CCn1c(-c2ccc(OC)cc2OC)nc2ccc(I)cc2c1=O
Result :: 660

Query :: Then N#CCOc1ccc(/C=C/c2ccc(COC#N)cc2COC#N)cc1 ?
Result :: 19

Query :: Another: COc1ccc(-c2nc(OC)c3ccccc3n2)cc1
Result :: 6.7

====

- Test system: HEK
- Procedure text: Cytotoxicity, resazurin, 72 hours after compound addition
- Type: cell-based
- Test context: Table 3; HEK; 10 μM
Measured metric: HEK cell viability % at 10 μM (%)
The reply should contain only the number, in %.

Query :: Report HEK cell viability % at 10 μM for COc1cc(-c2nc3ccccc3c(=O)[nH]2)ccc1OCC#N please.
Result :: 80.6

Query :: Try this compound too: N#CCOc1ccc(-c2nc3ccccc3c(=O)[nH]2)cc1
Result :: 89

Query :: Same read-out for COc1ccc(/C=C/c2cc[n+](C)cn2)c(OC)c1.[I-] ?
Result :: 103

Query :: Try the compound C#CCOc1ccc(/C=C/c2ccncn2)cc1
Result :: 93.4

Query :: Please give the result for COc1ccc(-c2nc3ccccc3c(=O)n2C)c(OC)c1 too.
Result :: 107

Query :: Likewise for COc1cc(/C=C/c2cnccn2)cc(OC)c1 ?
Result :: 103.1

Query :: Moving on to N#CCOc1ccc(-c2nc3ccccc3[nH]2)cc1 [GL523]
Result :: 93.4

Query :: Same lookup for COc1ccc(/C=C/c2cnccn2)c(OC)c1 , please.
Result :: 71.4

Query :: Repeat for the following compound: C#CCOc1ccc(-c2nc3ccc(I)cc3c(=O)[nH]2)cc1
Result :: 40.8

Query :: Do the same for COc1cc(OC)c(/C=C/c2ccncn2)c(OC)c1 please
Result :: 93.6

Query :: // same read-out, input: COc1ccc(/C=C/c2cncnc2)c(OC)c1
Result :: 95.8

Query :: Further, for COc1ccc(/C=C/c2ccccc2)c(OC)c1 ?
Result :: 124.2

Query :: Proceed to COc1cc(/C=C/c2ccncn2)cc(OC)c1OC
Result :: 83.4

Query :: Please answer likewise for O=c1[nH]c(-c2ccc(OC/C(I)=C\I)cc2)nc2ccccc12
Result :: 64.3

Query :: Try this compound next: COc1cc(/C=C/c2ccncn2)cc(OC)c1
Result :: 105.2

Query :: Record: COc1ccc(-c2nc3ccccc3c(=O)n2CC#N)c(OC)c1
Result :: 88.7

Query :: Repeat with COc1ccc(-c2nc(O)c3ccccc3n2)c(OC)c1
Result :: 85.3

Query :: Likewise for C#CCn1c(-c2ccc(OC)cc2OC)nc2ccc(I)cc2c1=O ?
Result :: 72.5

Query :: Same for COc1ccc(/C=C/c2cccnc2)c(OC)c1
Result :: 91.5

Query :: Same thing, different compound: N#CCOc1ccc(-c2nc3ccccc3[nH]2)cc1 [GL509]
Result :: 75

Query :: Also need COc1ccc(-c2nc3ccc(I)cc3c(=O)[nH]2)c(OC)c1 , thanks.
Result :: 83.4
